- System: passive cutaneous anaphylaxis (PCA)
- Assay remarks: Anti-passive cutaneous anaphylaxis (PCA) activity in rats (Test Example 2)
- Type: in vivo, Wistar strain rats
- Condition label: Rattus norvegicus; 10 mg/kg PO, N 10; read-out: Average Inhibition Rate (%) Antiserum Dilution: × 32
Assay endpoint: inhibition in vivo at 10 mg/kg (%)

| Compound | Measured number |
| --- | --- |
| O=C(Nc1ccccc1C(=O)O)C(=Cc1ccccc1)C(=O)Nc1ccccc1C(=O)O [Compound 11] | 33.1 |
| O=C(Nc1ccccc1C(=O)O)C(=Cc1ccc(Cl)cc1)C(=O)Nc1ccccc1C(=O)O [Compound 30] | 23.2 |
| CCOC(=O)c1ccccc1NC(=O)C(=Cc1ccccc1)C(=O)Nc1ccccc1C(=O)OCC [Compound 14] | 38.7 |
| O=c1oc(C(=Cc2ccccc2)c2nc3ccccc3c(=O)o2)nc2ccccc12 [Compound 52] | 29.4 |
| O=C(CC(=O)Nc1cc([N+](=O)[O-])ccc1C(=O)O)Nc1cc([N+](=O)[O-])ccc1C(=O)O [Compound 06] | 11.2 |

# credit: patent US4822791A
